System: MS2 coat protein
protocol-details: apparent KD of MS2 coat protein; designed switch direction (-1 OFF switch, 1 ON switch): 1; higher = weaker reporter binding
condition-parameters: Eterna round: R95; input ligand: FMN 200 uM

- biosequence: "AAUAAUCUAUCUGAGGAUAUCAUGAAAUAAACAUGAGGAUCACCCAUGUGCAGGAAAACUGCAUAUGAGAAGGCAGAUAGAUUGA [salish99_ss2_r3_020] (puzzle: Same State 2)"
  apparent KD of MS2 coat protein / nM: 43.8
- biosequence: "ACGCAGCUGGGCAAGGAUAUCGGUGGUAAAACAUGAGGAUCACCCAUGUCCGAAGCUCGGACUUCCGAGAAGGUGCCCGGCUGCG [Soinraesar Omei Mod 8] (puzzle: Same State 2)"
  apparent KD of MS2 coat protein / nM: 20.1
- biosequence: "GGCAGGUGCAGGCUUGCUUGCACCUGGAGACAUGAGGAUCACCCAUGUUUGGGACAAGCUUUGCUCCUCGUCUUUUC [JL ViennaUCT Isusreraar mod 7] (puzzle: Sensor for hsa-mir-208a)"
  apparent KD of MS2 coat protein / nM: 617
- biosequence: "GGUCCAGCCUGAGCUGGACAAAAGCAUGUACAUGAGGAUCACCCAUGUCAUGUACAAGCUUUUUGCUCGUCUAAAUA [Mat - hsa-mir-208a - 90] (puzzle: Sensor for hsa-mir-208a)"
  apparent KD of MS2 coat protein / nM: 464
- biosequence: "CAAGCUUGGGUCGUCCCGCUCGUCUACAAACAUGAGGAUCACCCAUGUAAAAUCUAAAAUUCAAAUCUAUCUCUAAA [Getienre] (puzzle: Sensor for hsa-mir-208a)"
  apparent KD of MS2 coat protein / nM: 515

###

Tested on: K4 kissing-loop RNA reporter;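 also: bound reporter read as fluorescence of individual clusters on recovered sequencing chips by microscopy, with normalized cluster intensities fitted with a binding model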
protocol-details: apparent KD of K4 kissing-loop reporter; higher = weaker reporter binding
condition-parameters: Eterna round: R107; input ligand: FMN 200 uM

- biosequence: "CUAUAAGUGCCGAGUGAUGUUCGGCCAAUACGAGGACCGGUACGGCCGCCACUCGGUCAGUGAGUGCCCACCGGGCGUGGCUGAC [Leedgeis]"
  target-system: "K4 kissing-loop RNA reporter"
  apparent KD of K4 kissing-loop reporter, nM: 261
- biosequence: "UCUCGGGCCAGUGAUGUUGGCGGCAAGUGGCGAGGACCGGUACGGCCGCCACUCGGCGCAGCAGCGGAGUGAUGUUUCGUGAGUA [Same State Tryptophan A GF 16]"
  target-system: "K4 kissing-loop RNA reporter"
  apparent KD of K4 kissing-loop reporter, nM: 297
- biosequence: "CAACAUCACAACUUCUUCGUCCUAGAAGACUAGGAUAUCAGGAAACUGAGAAGGAGUCUCUGCAGUGAUGUUGCAGCUAGGACGA [[K]'-[F2]'-[F1]'-[F1]-[F2]-[K1]-[K2]-[F]''_Design2b]"
  target-system: "K4 kissing-loop RNA reporter"
  apparent KD of K4 kissing-loop reporter, nM: 231
- biosequence: "GGAUAUGUAACAGAUACCAGCCGACGACAGUCACUGUGUCAUGUAGUGAUGUUACAAUCUGGCCCUUGGCAGCUGUCUCUGGUUU [theeternabot_exclusion_KL_Theo_B_27]"
  target-system: "K4 kissing-loop RNA reporter"
  apparent KD of K4 kissing-loop reporter, nM: 310
- biosequence: "GGUAGCAUGGCGGCCGCCACUGGAGAGUGAUGUUCUCCACUAGGUUACAACGCCGGACAGUCCACCAGGACCGGGCCAUGCUACC"
  target-system: "K4 kissing-loop RNA reporter"
  apparent KD of K4 kissing-loop reporter, nM: 140
- biosequence: "AGGUUUUGAUCAGGAUAUGCAUUGACGAUGAGAAUAUAGUGAUGUUAUAUACUACGAAUUAGUAAAGUAGAAGGGAUUGAGGUUU [SSFMNB.aB]"
  target-system: "K4 kissing-loop RNA reporter"
  apparent KD of K4 kissing-loop reporter, nM: 747
- biosequence: "UAAGUCUUAUCGGCCGCCACUCAUUACACGAAGUGAUGUUUCGGGUUUUAGACAAAUAAUUUUUGGAGGACCGGGAUACGAGAAA [theeternabot_sameState_KL_Trp_B_49]"
  target-system: "K4 kissing-loop RNA reporter"
  apparent KD of K4 kissing-loop reporter, nM: 162
- biosequence: "UUAGCCUAGCCAUAGUGAUGUUGUGGAAUACGAGGACCGGUACGGCCGCCACUCGCUCGACGGUGAUGACAUCAACGACCUUUAU [theeternabot_sameState_KL_Trp_A_38]"
  target-system: "K4 kissing-loop RNA reporter"
  apparent KD of K4 kissing-loop reporter, nM: 312
- biosequence: "GUAGGAUGAGGAGGAGGAUGAAUUACUGAAGGAGCGCAGAGAAAUGCAGGUAGGUCGCGGUAAAGAAGUAUAGUGAUGUUAUAUC [#09 K4 Arginine A Same State]"
  target-system: "K4 kissing-loop RNA reporter"
  apparent KD of K4 kissing-loop reporter, nM: 775
- biosequence: "GUAGACGUACCUUCAGUGAUGUUGAAGGAUACCAGAUGUUAUCACAUCCCUUGGCAGCCUUGGGAUAACAGUGAGUCGGAAUAUG [Essoaran]"
  target-system: "K4 kissing-loop RNA reporter"
  apparent KD of K4 kissing-loop reporter, nM: 170
- biosequence: "CGUUUAUUGCAGGAUACCAGUACCCAUUAUGUACGUUUAUAGUAGAGUGAUGUUCUAAAGUACCCUUGGCAGCUUCCCGUGACCC [#22 K4 Theophylline B Exclusion]"
  target-system: "K4 kissing-loop RNA reporter"
  apparent KD of K4 kissing-loop reporter, nM: 119

All values here come from the supplement of paper PMC9170038.
